Readings of IC50 for the listed compounds
# Test system: K98450-129-R-PDC complex spheroid growth, percent test/control
# assay.info: Anticancer human tumor K98450-129-R-PDC patient-derived colon adenocarcinoma cell line growth inhibition [RAS]
# experimental.setup: curve of first compound; second compound 0.316 µM
quantity.kind: IC50

* CC1(O)CCCC1n1c(=O)c(C(F)F)cc2cnc(NC3CCN(S(C)(=O)=O)CC3)nc21 (stereo not given) + C=CC(=O)N1CCN(c2nc(OCC3CCCN3C)nc3c(F)c(-c4nc(N)cc(C)c4C(F)(F)F)c(Cl)cc23)C(C)C1 | < 31.6 nM
* Nc1ccn(C2OC(CO)C(O)C2(F)F)c(=O)n1 (stereo not given) + C=CC(=O)N1CCN(c2nc(OCC3CCCN3C)nc3c(F)c(-c4nc(N)cc(C)c4C(F)(F)F)c(Cl)cc23)C(C)C1 | < 3.16 nM
* CCN1CCN(Cc2ccc(Nc3ncc(F)c(-c4cc(F)c5nc(C)n(C(C)C)c5c4)n3)nc2)CC1 + C#Cc1c(F)ccc2cc(O)cc(-c3ncc4c(N5CC6CCC(C5)N6)nc(OCC56CCCN5CC(F)C6)nc4c3F)c12 | > 1000 nM
* CCc1c2c(nc3ccc(O)cc13)-c1cc3c(c(=O)n1C2)COC(=O)[C@]3(O)CC + C=CC(=O)N1CCN(c2nc(OCC3CCCN3C)nc3c(F)c(-c4nc(N)cc(C)c4C(F)(F)F)c(Cl)cc23)C(C)C1 | < 0.949 nM
* C=CC(=O)Nc1cc(Nc2nccc(-c3cn(C)c4ccccc34)n2)c(OC)cc1N(C)CCN(C)C + C=CC(=O)N1CCN(c2nc(OCC3CCCN3C)nc3c(F)c(-c4nc(N)cc(C)c4C(F)(F)F)c(Cl)cc23)C(C)C1 | < 3.16 nM

====

Readings of pIC50 for the listed molecules
# System: K98450-129-R-PDC complex spheroid growth, percent test/control
# assay.info: Anticancer human tumor K98450-129-R-PDC cell line growth inhibition [RAS];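 note: spheroids exposed to agents for seven days before the viability readout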
# experimental.setup: curve of first compound; second compound 0.01 µM
pIC50: −log10 of the molar value.
quantity.kind: pIC50

• C[C@@H](NC(=O)c1ncnc(N)c1Cl)c1ncc(C(=O)Nc2cc(C(F)(F)F)c(Cl)cn2)s1 + C=CC(=O)N1CCN(c2nc(OCC3CCCN3C)nc3c(F)c(-c4nc(N)cc(C)c4C(F)(F)F)c(Cl)cc23)C(C)C1 = < 5.00
• CC(C)NCC(C(=O)N1CCN(c2ncnc3c2C(C)CC3O)CC1)c1ccc(Cl)cc1 (stereo not drawn) + C=CC(=O)N1CCN(c2nc(OCC3CCCN3C)nc3c(F)c(-c4nc(N)cc(C)c4C(F)(F)F)c(Cl)cc23)C(C)C1 = < 5.00
• CC(C)n1nc(-c2ccc3oc(N)nc3c2)c2c(N)ncnc21 + C=CC(=O)N1CCN(c2nc(OCC3CCCN3C)nc3c(F)c(-c4nc(N)cc(C)c4C(F)(F)F)c(Cl)cc23)C(C)C1 = < 7.00

====

# System: K98450-129-R-PDC complex spheroid growth, percent test/control
# assay.info: Anticancer human tumor K98450-129-R-PDC cell line growth inhibition [RAS];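 note: spheroids exposed to agents for seven days before the viability readout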;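 for viability, T/C: luminescence used as a proxy for viable cell amount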
# experimental.setup: second compound 0.00949 µM; first compound 0.1 µM; stronger effect = lower value
# Text: RAS pathway inhibitors in Combinations in Complex Spheroids A high-throughput screen of multi-cell type tumor spheroids was designed to identify active combinations of RAS pathway inhibitors and targeted small molecules. Complex spheroids include a stromal component modeled by human endothelial cells (HUVEC) and fibroblasts modeled by human mesenchymal stem cells (MSCs). […] Compounds. […] If the clinical Cmax for an agent had not been determined, the highest concentration tested was 10 microM. […]
quantity.kind: viability, T/C

• C=CC(=O)N1CCN(c2nc(OCC3CCCN3C)nc3c(F)c(-c4nc(N)cc(C)c4C(F)(F)F)c(Cl)cc23)C(C)C1 (centres undefined) + CCn1c(-c2cccnc2C(C)OC)c2c3cc(ccc31)N1CCOC(CC(NC(=O)C(C(C)C)N(C)C(=O)C3(F)CCN(C(=O)C#CC(C)(C)N(C)C)CC3)C(=O)N3CCCC(N3)C(=O)OCC(C)(C)C2)C1 = 44.9%
• Cc1nc(N2CCC3(CC2)COC(C)C3N)c(CO)nc1Sc1ccnc(N)c1Cl (centres undefined) + CCn1c(-c2cc(N3CCN(C)CC3)cnc2C(C)OC)c2c3cc(ccc31)-c1csc(n1)CC(NC(=O)C1CC1C)C(=O)N1CCCC(N1)C(=O)OCC(C)(C)C2 = 53.4%
• CC(C)n1nc(-c2ccc3oc(N)nc3c2)c2c(N)ncnc21 + CCn1c(-c2cc(N3CCN(C)CC3)cnc2C(C)OC)c2c3cc(ccc31)-c1csc(n1)CC(NC(=O)C1CC1C)C(=O)N1CCCC(N1)C(=O)OCC(C)(C)C2 = 48.1%
• CC1(O)CCCC1n1c(=O)c(C(F)F)cc2cnc(NC3CCN(S(C)(=O)=O)CC3)nc21 (centres undefined) + CCn1c(-c2cccnc2C(C)OC)c2c3cc(ccc31)N1CCOC(CC(NC(=O)C(C(C)C)N(C)C(=O)C3(F)CCN(C(=O)C#CC(C)(C)N(C)C)CC3)C(=O)N3CCCC(N3)C(=O)OCC(C)(C)C2)C1 = 38.5%

====

# System: K98450-129-R-PDC complex spheroid growth, percent test/control
# assay.info: Anticancer human tumor K98450-129-R-PDC cell line growth inhibition [RAS]; active = viability on the fitted dose curve at most 10% of control; inactive = the rest;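 note: spheroids exposed to agents for seven days before the viability readout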
# experimental.setup: second compound 0.0316 µM; first compound 1 µM
Possible outcomes: active, inactive

• CC(C)NCC(C(=O)N1CCN(c2ncnc3c2C(C)CC3O)CC1)c1ccc(Cl)cc1 (stereo not given) + C=CC(=O)N1CCN(c2nc(OCC3CCCN3C)nc3c(F)c(-c4nc(N)cc(C)c4C(F)(F)F)c(Cl)cc23)C(C)C1 = inactive
• O=C(c1ccc(F)c(F)c1Nc1ccc(I)cc1F)N1CC(O)([C@@H]2CCCCN2)C1 + C=CC(=O)N1CCN(c2nc(OCC3CCCN3C)nc3c(F)c(-c4nc(N)cc(C)c4C(F)(F)F)c(Cl)cc23)C(C)C1 = active
• CC1(O)CCCC1n1c(=O)c(C(F)F)cc2cnc(NC3CCN(S(C)(=O)=O)CC3)nc21 (stereo not given) + C=CC(=O)N1CCN(c2nc(OCC3CCCN3C)nc3c(F)c(-c4nc(N)cc(C)c4C(F)(F)F)c(Cl)cc23)C(C)C1 = inactive
• CC(Nc1ccc2c(c1)OCCn1cc(N3C(=O)OCC3C(F)F)nc1-2)C(N)=O (stereo not given) + C#Cc1c(F)ccc2cc(O)cc(-c3ncc4c(N5CC6CCC(C5)N6)nc(OCC56CCCN5CC(F)C6)nc4c3F)c12 = inactive
• C=CC(=O)N1CCN(c2nc(OCC3CCCN3C)nc3c(F)c(-c4nc(N)cc(C)c4C(F)(F)F)c(Cl)cc23)C(C)C1 (stereo not given) + C#Cc1c(F)ccc2cc(O)cc(-c3ncc4c(N5CC6CCC(C5)N6)nc(OCC56CCCN5CC(F)C6)nc4c3F)c12 = inactive
• CCC(CC)c1cc(NC2CCC(N)C2)n2nccc2n1 (stereo not given) + C=CC(=O)N1CCN(c2nc(OCC3CCCN3C)nc3c(F)c(-c4nc(N)cc(C)c4C(F)(F)F)c(Cl)cc23)C(C)C1 = inactive
• Cc1nc(N2CCC3(CC2)COC(C)C3N)c(CO)nc1Sc1ccnc(N)c1Cl (stereo not given) + C=CC(=O)N1CCN(c2nc(OCC3CCCN3C)nc3c(F)c(-c4nc(N)cc(C)c4C(F)(F)F)c(Cl)cc23)C(C)C1 = active
• O=C(c1ccc(F)c(F)c1Nc1ccc(I)cc1F)N1CC(O)([C@@H]2CCCCN2)C1 + C#Cc1c(F)ccc2cc(O)cc(-c3ncc4c(N5CC6CCC(C5)N6)nc(OCC56CCCN5CC(F)C6)nc4c3F)c12 = active
• CCN1CCN(Cc2ccc(Nc3ncc(F)c(-c4cc(F)c5nc(C)n(C(C)C)c5c4)n3)nc2)CC1 + C=CC(=O)N1CCN(c2nc(OCC3CCCN3C)nc3c(F)c(-c4nc(N)cc(C)c4C(F)(F)F)c(Cl)cc23)C(C)C1 = inactive
• NC1c2ccccc2OC12CCN(c1cnc3c(N4CCCc5ncccc54)n[nH]c3n1)CC2 (stereo not given) + C#Cc1c(F)ccc2cc(O)cc(-c3ncc4c(N5CC6CCC(C5)N6)nc(OCC56CCCN5CC(F)C6)nc4c3F)c12 = inactive
• C=CC(=O)Nc1cc(Nc2nccc(-c3cn(C)c4ccccc34)n2)c(OC)cc1N(C)CCN(C)C + C#Cc1c(F)ccc2cc(O)cc(-c3ncc4c(N5CC6CCC(C5)N6)nc(OCC56CCCN5CC(F)C6)nc4c3F)c12 = inactive
• C[C@@H](NC(=O)c1ncnc(N)c1Cl)c1ncc(C(=O)Nc2cc(C(F)(F)F)c(Cl)cn2)s1 + C=CC(=O)N1CCN(c2nc(OCC3CCCN3C)nc3c(F)c(-c4nc(N)cc(C)c4C(F)(F)F)c(Cl)cc23)C(C)C1 = inactive
• Cc1nc(N2CCC3(CC2)COC(C)C3N)c(CO)nc1Sc1ccnc(N)c1Cl (stereo not given) + C#Cc1c(F)ccc2cc(O)cc(-c3ncc4c(N5CC6CCC(C5)N6)nc(OCC56CCCN5CC(F)C6)nc4c3F)c12 = inactive
• CCN1CCN(Cc2ccc(Nc3ncc(F)c(-c4cc(F)c5nc(C)n(C(C)C)c5c4)n3)nc2)CC1 + C#Cc1c(F)ccc2cc(O)cc(-c3ncc4c(N5CC6CCC(C5)N6)nc(OCC56CCCN5CC(F)C6)nc4c3F)c12 = inactive
• CC(=O)OC12COC1CC(O)C1(C)C(=O)C(O)C3=C(C)C(OC(=O)C(O)C(NC(=O)OC(C)(C)C)c4ccccc4)CC(O)(C(OC(=O)c4ccccc4)C21)C3(C)C (stereo not given) + C=CC(=O)N1CCN(c2nc(OCC3CCCN3C)nc3c(F)c(-c4nc(N)cc(C)c4C(F)(F)F)c(Cl)cc23)C(C)C1 = inactive

The measured values listed here are drawn from PubChem BioAssay AID2060891.
